Entry source: patent US20240246964A1

Target: human PD-L1 (Homo sapiens (Human), UniProt Q9NZQ7)
Sequence (Q9NZQ7 19-290): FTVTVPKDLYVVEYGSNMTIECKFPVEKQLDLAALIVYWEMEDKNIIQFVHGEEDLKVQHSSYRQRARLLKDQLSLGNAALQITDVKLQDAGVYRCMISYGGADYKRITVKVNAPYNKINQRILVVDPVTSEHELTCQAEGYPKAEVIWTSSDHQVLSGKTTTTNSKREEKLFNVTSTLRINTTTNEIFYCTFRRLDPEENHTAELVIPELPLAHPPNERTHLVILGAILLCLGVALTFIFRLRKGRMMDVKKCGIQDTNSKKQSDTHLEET
Experiment: T cell activation luciferase reporter cell culture system (T Cell Activation Assay)
Type: cell-based
Details: luciferase reporter assay; PD-L1 aAPC/CHO-K1 cells with PD-1 effector Jurkat T cells
Measured log10 of EC50 of individual entries
The base-10 logarithm of EC50, taken with EC50 in nM, is what appears here.

# example entries with known answers
{"Chemical string": "COc1cc(-c2nccc(-c3cccc(NC(=O)c4ccc(CNC5CCOCC5)cn4)c3Cl)c2Cl)ccc1CNC1CCOCC1", "log10 of EC50": 2.53}
{"Chemical string": "COc1cc(-c2nccc(-c3cccc(-c4ccc(CN5CC6(CCOCC6)C5)c(OC)n4)c3Cl)c2Cl)ccc1CNC1CCOCC1", "log10 of EC50": 1.62}
{"Chemical string": "COc1cc(-c2nccc(-c3cccc(-c4ccc(CN[C@H]5C[C@](C)(O)C5)c(OC)n4)c3Cl)c2Cl)cc2c1CN(C[C@H](C)O)CC2", "log10 of EC50": 1.41}
{"Chemical string": "COc1nc(-c2cccc(-c3ccnc(-c4ccc5c(c4)CN(CCNC[C@@H]4CCC(=O)N4)C5=O)c3Cl)c2Cl)ccc1CNC[C@@H]1CCC(=O)N1", "log10 of EC50": 2.20}

Alright, here's another compound for you.
Incoming: So what's the measured log10 of EC50 for this one? COc1cc(-c2nccc(-c3cccc(-c4ccc(CNC5CCOCC5)c(OC)n4)c3F)c2Cl)ccc1CNC1CCOCC1
Outgoing: 2.33

----------
Measured IC50 of individual entries
Target: PD-L1 His protein / PD-1 Fc protein (Homo sapiens (Human))
Sequence (Q9NZQ7 19-238): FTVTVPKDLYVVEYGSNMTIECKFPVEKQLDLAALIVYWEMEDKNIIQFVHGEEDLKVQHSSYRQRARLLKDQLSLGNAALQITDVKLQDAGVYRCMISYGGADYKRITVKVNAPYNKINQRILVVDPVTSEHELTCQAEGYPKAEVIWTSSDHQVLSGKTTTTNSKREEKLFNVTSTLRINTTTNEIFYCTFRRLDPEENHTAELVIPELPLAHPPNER
Assay: HTRF Assay (PD-1/PD-L1 interaction)
Assay type: binding
Settings: PD-L1 His 6 nM, PD-1 Fc 6 nM
The figure you give is taken to be in nM; do not add the unit.

Incoming: So what's the measured IC50 for this one? COc1cc(-c2nccc(-c3cccc(-c4ccc(CN[C@H]5CC[C@H](OC)CC5)c(OC)n4)c3Cl)c2Cl)ccc1CN[C@H]1CC[C@H](OC)CC1 [Example 450]
Outgoing: 2.36

Incoming: Another compound: CNCc1ccc(-c2cccc(-c3ccnc(-c4ccc(CNCCC(=O)O)c(OC)c4)c3Cl)c2Cl)nc1OC [Compound 221]
Outgoing: 0.2

Incoming: Another compound: COc1nc(-c2cccc(-c3ccnc(-c4ccc(CNC5CCOCC5)c(OC(F)F)c4)c3Cl)c2Cl)ccc1CN1CC2(C1)CN(C(C)=O)C2 [Example 689]
Outgoing: 3.33

----------
Molecular target: human PD-L1 (Homo sapiens (Human), UniProt Q9NZQ7)
Assay: T cell activation luciferase reporter cell culture system (T Cell Activation Assay)
Format: cell-based
Settings: luciferase reporter assay; PD-L1 aAPC/CHO-K1 cells with PD-1 effector Jurkat T cells
Parameter measured: EC50 (µM)
The figure you give is taken to be in µM; do not add the unit.

{"Chemical string": "COc1nc(-c2cccc(-c3ccnc(-c4ccc5c(CNC6CCN(C(C)=O)CC6)nn(C)c5c4)c3Cl)c2Cl)ccc1CNC[C@@H]1CCC(=O)N1", "Experimental target": "human PD-L1 (Homo sapiens (Human), UniProt Q9NZQ7)", "Result number": 0.0184}
{"Chemical string": "COc1cc(-c2nccc(-c3cccc(-c4ccc(CNC5CN(C(C)=O)C5)c(OC)n4)c3Cl)c2Cl)ccc1CNC1CN(C(C)=O)C1", "Experimental target": "human PD-L1 (Homo sapiens (Human), UniProt Q9NZQ7)", "Result number": 0.282}
{"Chemical string": "COc1cc(-c2nccc(-c3cccc(-c4ccc(CNC5CCOCC5)c(OC)n4)c3C)c2Cl)ccc1CNC1CCOCC1", "Experimental target": "human PD-L1 (Homo sapiens (Human), UniProt Q9NZQ7)", "Result number": 0.0988}
{"Chemical string": "COc1cc(-c2nccc(-c3cccc(-c4ccc(CNC5CCN(C(C)=O)CC5)c(OC)n4)c3Cl)c2Cl)cc(F)c1CNC1CCN(C(C)=O)CC1", "Experimental target": "human PD-L1 (Homo sapiens (Human), UniProt Q9NZQ7)", "Result number": 0.0142}

Incoming: So what's the measured EC50 for this one? COc1cc(-c2nccc(-c3cccc(-c4ccc(CN5CC(C)(O)C5)c(OC)n4)c3Cl)c2Cl)cc2c1CN(C[C@H](C)O)CC2
Outgoing: 0.0382
